System: HepG2
Assay: relative viability EC50 (midpoint between 100% and the lowest measured viability); higher = less toxic
Conditions: 72 h
Measured attribute: relative viability EC50

// worked examples, relative viability EC50 included
Molecule	relative viability EC50
CCn1nc(C(=O)O)c(=O)c2cc3c(cc21)OCO3	> 10 µM
COC(=O)c1csc(C(=O)c2c[nH]c3ccccc23)n1	> 10 µM
CC[C@]12CCCN3CCc4c(n(c5ccccc45)C(=O)C1)[C@@H]32	1.37 µM

## Input So what does the record say about relative viability EC50 for N[C@@H](C(=O)O)c1nn[nH]n1 (racemic) [tetrazol-5-yl-glycine-(RS)] ?
## Output > 10 µM

## Input So what does the record say about relative viability EC50 for COc1cc2c(cc1OC(C)C)[C@H](c1ccc(Cl)cc1)N(c1ccc(N(C)C[C@H]3CC[C@H](N4CCN(C)C(=O)C4)CC3)cc1)C(=O)C2 ?
## Output 1.31 µM

## Input So what does the record say about relative viability EC50 for O=C(O)Cc1cc2ccccc2nc1C(=O)O ?
## Output > 10 µM

## Input So what does the record say about relative viability EC50 for CC1(C)CCC(C)(C)c2cc(C3(c4ccc5cc(C(=O)O)ccc5c4)SCCS3)ccc21 ?
## Output > 10 µM

// provenance: the supplement of paper PMC13380429
